Molecular target: Ras-related C3 botulinum toxin substrate 1 (Mus musculus, UniProt P63001)
Experiment: blockers of fluorescent GTP loading onto wildtype Rac1 – biochemical, pyrazoline analogs, multiplex, flow cytometry, Ki, SAR follow-up (AID 2055)
measurement-label: pEC50
Remember, pEC50 is on a log scale: it is -log10 of the molar concentration.

Consider the compound shown here: O=S(=O)(O)c1ccc(N2N=C(c3ccccc3)CC2c2ccccc2)cc1 (stereo unspecified) [UNM-0000305834] What is its recorded pEC50?
4.52
